Molecular target: UniProt:O60341
REPORTED_ENDPOINT: IC50

IN: Which measured IC50 belongs to Cn1c(N2CCC(N)CC2)nc(-c2ccc(C#N)c(F)c2)c(-c2ccc(OCCO)cc2)c1=O [Example 96] , tested on UniProt:O60341?
OUT: < 100 nM
